The reported numbers originate from patent US20240109917A1.

Parameter 'readout' = IC50; parameter 'system' = His6-TEV-PDGFRβ (557-1016) (Homo sapiens (Human), UniProt P09619).
Sequence (P09619 557-1016): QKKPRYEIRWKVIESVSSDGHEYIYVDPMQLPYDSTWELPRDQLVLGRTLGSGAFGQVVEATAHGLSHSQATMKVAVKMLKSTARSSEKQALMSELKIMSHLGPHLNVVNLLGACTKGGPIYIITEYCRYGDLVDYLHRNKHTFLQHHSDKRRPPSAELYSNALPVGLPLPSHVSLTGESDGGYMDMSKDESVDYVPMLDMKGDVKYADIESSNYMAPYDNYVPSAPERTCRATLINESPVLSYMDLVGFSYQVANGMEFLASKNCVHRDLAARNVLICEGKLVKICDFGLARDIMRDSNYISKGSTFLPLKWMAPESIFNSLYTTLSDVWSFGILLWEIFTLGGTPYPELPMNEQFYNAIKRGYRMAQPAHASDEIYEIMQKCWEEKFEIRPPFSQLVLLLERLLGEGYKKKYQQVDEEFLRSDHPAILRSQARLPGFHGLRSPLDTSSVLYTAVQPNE
Hi! Could you send only the number? It should be in nM, unit omitted.

Example cases with answers are listed next.
| COMPOUND | REPORTED |
| --- | --- |
| Cc1ncc(C(=O)NCCN2C3CCC2COC3)cc1NC(=O)c1cnn2cc(-c3cnn(C)c3)sc12 [Example 122] | 0.3 |
| Cc1ncc(NC(=O)CN2CC(C)(C)C2)cc1NC(=O)c1cnn2cc(-c3cnn(CS(C)(=O)=O)c3)sc12 [Example 265] | 0.5 |
| Cc1ncc(C(=O)NCCN2CCCC2(C)C)cc1NC(=O)c1cnn2cc(-c3cnn4c3COCC4)sc12 [Example 450] | 0.4 |
| Cc1ncc(C(=O)NC[C@H]2CCCN2CCO)cc1NC(=O)c1cnn2cc(-c3cnn(C)c3)sc12 [Example 236] | 2.1 |
| Cc1ncc(NC(=O)CNCC2CC2)cc1NC(=O)c1cnn2cc(-c3cnn4c3CCC4)sc12 [Example 454] | 0.4 |
| Cc1ncc(C(=O)NCCN2CCC3(CC3)C2)cc1NC(=O)c1cnn2cc(-c3cnn(C)c3)sc12 [Example 118] | 0.3 |
| Cc1cc(C(=O)NCCCN2CCCC2(C)C)sc1NC(=O)c1cnn2cc(-c3cnn(C)c3)sc12 [Example 201] | 58.5 |
| Cc1ncc(NC(=O)CN2CC3CCC(C2)O3)cc1NC(=O)c1cnn2cc(-c3cc[nH]c3)sc12 [Example 366] | 0.3 |

Could you now consider this next compound?
Please tell me: IC50 of Cc1ncc(NC(=O)OCC(C)N2CCCC2)cc1NC(=O)c1cnn2cc(-c3cnn(C)c3)sc12 (stereo not drawn) [Example 248] , system His6-TEV-PDGFRβ (557-1016) (Homo sapiens (Human), UniProt P09619)? 0.4
